All values here come from PubChem BioAssay AID1996.

# condition_summary: buffer; pH 7.4; 200.0 µM
solubility kinetic values for the compounds below.
property_name: solubility kinetic (µg/mL)

>>> value("Cc1ncc(CN2CCN(CCc3ccccc3)C(CCO)C2)s1 (stereo not given)")
39.7
>>> value("CC(=O)c1cccc(NC(=O)c2ccc3ccccc3c2)c1")
1.9
>>> value("COc1ccc(NC(=O)CSc2ccccc2)c([N+](=O)[O-])c1")
3.4
>>> value("c1ccc(Oc2ncnc3sccc23)cc1")
25.1
>>> value("CCOC(=O)C1CCN(c2ncnc3c(C)csc23)CC1")
37.8
>>> value("COc1cccc(C(=O)Nc2cccc3c2ccc2cccn23)c1")
1.3
>>> value("CCOc1ccc(/C=C/c2[nH]c(=O)[nH]c(=O)c2[N+](=O)[O-])cc1")
13.2
>>> value("Cc1ccc(S(=O)(=O)NCc2ccccn2)c(C)c1C")
43.2
>>> value("CC1(c2ccccc2)CC(c2ccccc2)=Nc2ccccc2N1 (stereo not given)")
5.8
>>> value("C=Cn1cc[n+](CC(=O)c2ccc(Cl)cc2)c1.[Br-]")
43.3
>>> value("O=[N+]([O-])c1ccc2c(c1N1CCCCC1)=NC1(CCCCC1)[N+]=2[O-]")
47.1
>>> value("CCN(CC)C(=O)c1ccc(-c2cccs2)s1")
32.6
>>> value("CCOc1cc(C(N)=O)cc(Br)c1OCc1ccccc1")
12.8
>>> value("Cc1ccc(NCCC(=O)c2cccs2)cc1")
17.9
>>> value("Cc1ccc(C(=O)CSc2nc(C(C)C)nc3ccccc23)cc1")
0.6
>>> value("CC(=O)c1ccc(NC(=S)N2CCCC2)cc1")
35.4

----------
# condition_summary: buffer; pH 7.4; 200.0 µM
property_name: solubility kinetic (µg/mL)

>>> value("O=[N+]([O-])c1cccc(-c2ccc(CN3CCN(c4ccccc4)CC3)o2)c1")
1.4
>>> value("COc1ccc(-c2ccccc2)cc1NC(=O)c1cccs1")
1.2
>>> value("CN(C)C(CNC(=O)c1cccc(C#N)c1)c1ccco1 (stereo not given)")
39.3
>>> value("COc1ccc(CCC(C)NCc2cccc(Br)c2)cc1 (stereo not given)")
34.1
>>> value("O=c1c2ccccc2nc(-c2ccccc2F)n1-c1ccccc1")
45.5
>>> value("N#C/C(=C\\c1c[nH]c2ccccc12)C(=O)NC1CC1")
11.4
>>> value("CCOc1ccccc1CNC(c1ccccc1)c1ccccc1.Cl")
1.4
>>> value("c1ccc(Cc2c[nH]c3ccccc23)cc1")
6.7
>>> value("Cc1ccc2c(c1)c1c3n2CCN(CC#N)C3CCC1 (stereo not given)")
1.1
>>> value("O=C(Nc1ccccc1N1CCCCC1)c1cccc([N+](=O)[O-])c1")
0.7
>>> value("CCOc1ccccc1NC(=O)CN1C(=O)C(C)SC(C)C1=O (stereo not given)")
34.5
>>> value("Cc1ccc(C(=O)N/C(=C\\c2cn(C)c3ccccc23)C(=O)OCCN(C)C)cc1")
58.9
>>> value("CN(Cc1nc(-c2cccc(Cl)c2)no1)C1CCOCC1")
36.9
>>> value("COc1ccc(CN(C)CC(=O)NC(C)c2ccccc2)c(OC)c1 (stereo not given)")
51.2

----------
# condition_summary: buffer; pH 7.4; 200.0 µM
property_name: solubility kinetic (µg/mL)

>>> value("O=Cc1c(NCc2ccccc2F)c2ccccc2[nH]c1=O")
4.2
>>> value("COc1ccc(CCNC(=O)c2ccc3c(c2)OCO3)cc1")
2.5
>>> value("CSc1nc2nc(-c3cccs3)cc(C(F)(F)F)c2c(=O)[nH]1")
2.5
>>> value("Cc1ccc(OCCSc2nc3ncnc(N)c3[nH]2)cc1")
3.8
